- TGT: T1, full-length beta-catenin (UniProt P35222 2-781, limits assumed)
- T1 construct: mature; also called full-length ß-Catenin; β-catenin
- T1 sequence (looked up): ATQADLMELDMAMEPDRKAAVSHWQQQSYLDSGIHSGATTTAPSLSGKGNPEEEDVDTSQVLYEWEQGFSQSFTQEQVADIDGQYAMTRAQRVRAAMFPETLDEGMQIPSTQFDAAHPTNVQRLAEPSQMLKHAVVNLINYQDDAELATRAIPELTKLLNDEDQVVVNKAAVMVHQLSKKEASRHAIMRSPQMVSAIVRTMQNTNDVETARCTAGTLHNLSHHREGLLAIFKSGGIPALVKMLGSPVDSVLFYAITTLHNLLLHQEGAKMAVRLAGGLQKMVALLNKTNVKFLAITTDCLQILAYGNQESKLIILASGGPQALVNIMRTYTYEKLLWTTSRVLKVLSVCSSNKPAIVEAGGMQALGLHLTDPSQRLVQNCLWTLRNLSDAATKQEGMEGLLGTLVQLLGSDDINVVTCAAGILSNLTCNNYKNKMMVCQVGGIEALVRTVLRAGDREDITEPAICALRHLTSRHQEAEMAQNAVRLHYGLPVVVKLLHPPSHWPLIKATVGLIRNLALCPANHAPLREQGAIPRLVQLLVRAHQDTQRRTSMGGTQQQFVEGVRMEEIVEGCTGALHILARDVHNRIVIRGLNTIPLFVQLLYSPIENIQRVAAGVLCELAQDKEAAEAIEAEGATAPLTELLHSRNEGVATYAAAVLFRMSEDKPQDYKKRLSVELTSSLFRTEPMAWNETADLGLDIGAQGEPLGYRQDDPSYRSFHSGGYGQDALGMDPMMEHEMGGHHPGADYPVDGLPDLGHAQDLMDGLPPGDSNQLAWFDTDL
- ASSAY NAME: competition FP, grade of FP EC50 (++: 100-500 nM)
Numbered stars: 1 amine (or outer) side, 2 acyl side, 3 side chain; on linkers, the order of the positions; unused ones are H or OH. Bridge positions count the residues as written; N and C are the ends. Square brackets hold non-standard residues; d marks the D form. R7 = (R)-2-(6-heptenyl)alanine, C=CCCCCC[C@@](C)(N[*:1])C(=O)[*:2]; MD = Monomer D = SgN, acyclic Alloc-amine olefin stapling residue; R8 = C=CCCCCCC[C@@](C)(N)C(=O)O; S5 = C=CCCC[C@](C)(N)C(=O)O
binders and their reported FP EC50

Ac-A[R7]ILDAHI[MD]RVW-NH2 (staple 2-9; not fully specified; printed as Ac-A-R7-I-L-D-A-H-I-MD-R-V-W-NH2; also: carbamate staple R7/MD (-N(R')-C(O)-O-)) [FP0495c] | 100 to 500 nM

Ask: Provide FP EC50 value for the following binder: Ac-PQ[S5]ILD[S5]HVRRVWR-NH2 (staple 3-7; SMILES CC[C@H](C)[C@@H]1NC(=O)[C@@](C)(NC(=O)[C@H](CCC(N)=O)NC(=O)[C@@H]2CCCN2C(C)=O)CCCC=CCCC[C@@](C)(C(=O)N[C@@H](Cc2c[nH]cn2)C(=O)N[C@H](C(=O)N[C@@H](CCCNC(=N)N)C(=O)N[C@@H](CCCNC(=N)N)C(=O)N[C@H](C(=O)N[C@@H](Cc2c[nH]c3ccccc23)C(=O)N[C@@H](CCCNC(=N)N)C(N)=O)C(C)C)C(C)C)NC(=O)[C@H](CC(=O)O)NC(=O)[C@H](CC(C)C)NC1=O, also called S5/S5) [FP0787s]
Reply: 100 to 500 nM

Ask: Provide FP EC50 value for the following binder: Ac-A[R8]ILDAHI[MD]RVW-NH2 (staple 2-9) [FP0338c]
Reply: 100 to 500 nM
